Observed IC50 values for UniProtKB O42275 are listed in what follows.
REPORTED METRIC: IC50

ITEM SMILES | MEASUREMENT
CC(C)c1cc(C(C)C)c(S(=O)(=O)Nc2ccc3nc4n(c(=O)c3c2)-c2ccccc2C4=O)c(C(C)C)c1 | > 50 µM
O=C1c2ccccc2-n2c1nc1ccc(NS(=O)(=O)c3ccccc3F)cc1c2=O | > 50 µM
CC(C)c1cc(C(C)C)c(S(=O)(=O)Nc2ccc3c(c2)C(=O)c2nc4ccccc4c(=O)n2-3)c(C(C)C)c1 | > 50 µM

* * *

- STUDY SYSTEM: AChE (from electric eel) (Electrophorus electricus)
- Sequence (O42275 24-633): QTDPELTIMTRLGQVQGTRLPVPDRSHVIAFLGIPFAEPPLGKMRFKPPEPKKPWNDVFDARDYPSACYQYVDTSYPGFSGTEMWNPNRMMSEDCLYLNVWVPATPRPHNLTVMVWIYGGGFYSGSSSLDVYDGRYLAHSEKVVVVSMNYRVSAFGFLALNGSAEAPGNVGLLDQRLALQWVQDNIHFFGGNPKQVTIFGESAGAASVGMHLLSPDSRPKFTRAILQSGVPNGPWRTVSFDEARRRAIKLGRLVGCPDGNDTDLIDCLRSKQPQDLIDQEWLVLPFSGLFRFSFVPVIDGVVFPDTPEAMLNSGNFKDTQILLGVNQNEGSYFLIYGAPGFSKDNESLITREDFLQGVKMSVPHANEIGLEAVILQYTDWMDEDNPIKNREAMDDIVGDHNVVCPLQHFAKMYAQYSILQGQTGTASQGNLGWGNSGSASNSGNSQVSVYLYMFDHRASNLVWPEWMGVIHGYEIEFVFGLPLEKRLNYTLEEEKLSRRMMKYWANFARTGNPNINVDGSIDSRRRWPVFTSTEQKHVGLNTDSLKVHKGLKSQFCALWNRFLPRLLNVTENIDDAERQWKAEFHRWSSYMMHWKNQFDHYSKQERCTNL
pIC50: −log10 of the molar value.

ITEM SMILES | PREFIX OPERATOR | pIC50
O=C1c2cc(NS(=O)(=O)c3ccccc3F)ccc2-n2c1nc1ccccc1c2=O | = | 6.89
O=C1c2cc(NS(=O)(=O)c3ccc(Br)cc3)ccc2-n2c1nc1ccccc1c2=O | = | 4.48
O=C1c2ccccc2-n2c1nc1ccc(NS(=O)(=O)c3ccc(OC(F)(F)F)cc3)cc1c2=O | < | 4.30
COc1ccc(S(=O)(=O)Nc2ccc3c(c2)C(=O)c2nc4ccccc4c(=O)n2-3)cc1OC | = | 4.59
COc1ccc(S(=O)(=O)Nc2ccc3nc4n(c(=O)c3c2)-c2ccccc2C4=O)cc1OC | < | 4.30
O=C1c2cc(NS(=O)(=O)c3ccccc3OC(F)(F)F)ccc2-n2c1nc1ccccc1c2=O | = | 5.23

* * *

- Test system: H2O2-induced PC12 cells
- PROTOCOL TEXT: Neuroprotection against H2O2-induced PC12 cell injury (MTT)
- Type: cell-based
- CONDITION DESCRIPTION: compound 10 μM, H2O2 250 μM, mean ± SEM
REPORTED METRIC: H2O2-Induced PC12 Cell Viability (% of Control)

ITEM SMILES | MEASUREMENT
CC(C)c1cc(C(C)C)c(S(=O)(=O)Nc2ccc3c(c2)C(=O)c2nc4ccccc4c(=O)n2-3)c(C(C)C)c1 | 42.53 ± 2.7 % of Control
CC(=O)Nc1ccc(S(=O)(=O)Nc2ccc3c(c2)C(=O)c2nc4ccccc4c(=O)n2-3)cc1 | 34.43 ± 5.5 % of Control
O=C1c2ccccc2-n2c1nc1ccc(NS(=O)(=O)c3ccc(Br)cc3)cc1c2=O | 41.78 ± 1.2 % of Control
CC(C)c1cc(C(C)C)c(S(=O)(=O)Nc2ccc3nc4n(c(=O)c3c2)-c2ccccc2C4=O)c(C(C)C)c1 | 39.65 ± 5.2 % of Control
CC(C)(C)c1ccc(S(=O)(=O)Nc2ccc3nc4n(c(=O)c3c2)-c2ccccc2C4=O)cc1 | 39.10 ± 4.5 % of Control
COc1ccc(S(=O)(=O)Nc2ccc3c(c2)C(=O)c2nc4ccccc4c(=O)n2-3)cc1 | 38.24 ± 3.1 % of Control
O=C1c2cc(NS(=O)(=O)c3ccc(OC(F)(F)F)cc3)ccc2-n2c1nc1ccccc1c2=O | 37.89 ± 4.3 % of Control
CC(=O)Nc1ccc(S(=O)(=O)Nc2ccc3nc4n(c(=O)c3c2)-c2ccccc2C4=O)cc1 | 48.46 ± 1.6 % of Control
COc1ccc(S(=O)(=O)Nc2ccc3c(c2)C(=O)c2nc4ccccc4c(=O)n2-3)cc1OC | 44.35 ± 1.5 % of Control
